Entries and their measured IC50 follow.
Biological target: PAR-4 (Homo sapiens, UniProt Q96RI0)
Construct: endogenous in cells; host or cells: washed platelets
Sequence (Q96RI0 18-385): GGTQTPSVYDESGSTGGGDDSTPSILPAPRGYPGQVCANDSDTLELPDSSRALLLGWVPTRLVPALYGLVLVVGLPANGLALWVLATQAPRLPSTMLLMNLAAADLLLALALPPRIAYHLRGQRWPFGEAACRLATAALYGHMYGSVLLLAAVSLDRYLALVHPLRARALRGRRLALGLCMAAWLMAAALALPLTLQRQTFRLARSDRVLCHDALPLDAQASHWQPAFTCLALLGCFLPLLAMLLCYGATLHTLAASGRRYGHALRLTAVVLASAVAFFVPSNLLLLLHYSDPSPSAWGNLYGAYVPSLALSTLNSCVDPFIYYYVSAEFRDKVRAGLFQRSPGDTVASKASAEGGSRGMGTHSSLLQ
Test: PAC-1 binding assay, washed platelets stimulated with PAR-4-AP (flow cytometry)
Assay type: cell-based
Settings: PAR-4-AP stimulation, read-out: PAR-4 AP % Max PAC-1 binding (IC50 [M])
Kindly answer with a numeric value in M, unit omitted.

Here's what some known entries look like.
COc1nn2cc(-c3ccc(Cl)c([N+](=O)[O-])c3)nc2s1 [Example B26]; 9.95e-08
COc1nn2cc(-c3ccccc3)nc2s1 [Example B8]; 7.08e-07
COc1nn2cc(-c3ccccn3)nc2s1 [Example B18]; 2.22e-05
COc1nn2cc(-c3ccccc3OC)nc2s1 [Example B15]; 3.95e-06
COc1nn2cc(-c3ccc4sccc4c3)nc2s1 [Example B54]; 7.75e-08
COc1nn2cc(-c3ccccc3Cl)nc2s1 [Example B21]; 4.54e-07
COc1nn2cc(-c3ccccc3C(F)(F)F)nc2s1 [Example B2]; 1.33e-06
COc1nn2cc(-c3ccc(C#N)cc3)nc2s1 [Example B17]; 8.95e-07
COc1nn2cc(-c3ccc(F)cc3F)nc2s1 [Example B5]; 1.75e-07

Could you now look at the following compound, please?
Returns the measured IC50 for the input compound. Input: COc1nn2cc(-c3ccc(OCc4csc(-c5ccccc5)n4)cc3)nc2s1 [Example B43]
1.33e-06

###

Entries and their measured remaining activity at 10 µM follow.
target: PAR-4 (Homo sapiens); construct: endogenous in cells; host or cells: washed platelets; test: PAC-1 binding assay, washed platelets stimulated with PAR-4-AP (flow cytometry); format: cell-based; conditions: 10 μM antagonist, PAR-4-AP stimulation, 100% = DMSO control stimulated, read-out: PAR-4 AP % Max PAC-1 binding (10 μM)
Kindly answer with a numeric value in %, unit omitted.

Here's what some known entries look like.
COc1nn2cc(-c3ccccc3O)nc2s1; 92.7
CCOc1nn2cc(-c3c(F)cccc3F)nc2s1; 3.47
CC(C)COc1nn2cc(-c3ccc(C(F)(F)F)cc3)nc2s1; 102
FC(F)(F)c1ccc(-c2cn3nc(OC4CCCC4)sc3n2)cc1; 114
COc1nn2cc(-c3ccc4sccc4c3)nc2s1; 20.7
COc1nn2cc(-c3ccc(F)cc3F)nc2s1; 0.21
COc1nn2cc(-c3ccc(O)cc3)nc2s1; 91.2
COc1nn2cc(-c3ccc(-c4cccs4)cc3)nc2s1; 3.35

Returns the measured remaining activity at 10 µM for the input molecule. Input: COc1nn2cc(-c3ccccn3)nc2s1
18.6

Returns the measured remaining activity at 10 µM for the input molecule. Input: COc1nn2cc(-c3ccc(Cl)c([N+](=O)[O-])c3)nc2s1
1.52

Returns the measured remaining activity at 10 µM for the input molecule. Input: COc1nn2cc(-c3ccc([N+](=O)[O-])cc3)nc2s1
1.6

Returns the measured remaining activity at 10 µM for the input molecule. Input: COc1nn2cc(-c3ccc(C#N)cc3)nc2s1
0.93

###

target: PAR-4 (Homo sapiens, UniProt Q96RI0); construct: endogenous in cells; host or cells: washed platelets; test: PAC-1 binding assay, washed platelets stimulated with 100 nM gamma-thrombin (flow cytometry); assay type: cell-based; details: 100 nM γ-thrombin stimulation
Entries and their measured IC50 follow.

Here's what some known entries look like.
COc1nn2cc(-c3ccc(C)cc3)nc2s1 [Example B12]; > 1000 nM
COc1nn2cc(-c3cccc(Cl)c3)nc2s1 [Example B23]; > 1000 nM
COc1nn2cc(-c3ccc4sccc4c3)nc2s1 [Example B54]; > 1000 nM

Returns the measured IC50 for the input compound. Input: COc1nn2cc(-c3cccc(OCc4csc(-c5ccccc5)n4)c3)nc2s1 [Example B47]
≥ 1000 nM

Returns the measured IC50 for the input compound. Input: COc1nn2cc(-c3cc(C(F)(F)F)cc(C(F)(F)F)c3)nc2s1 [Example B25]
> 1000 nM

Returns the measured IC50 for the input compound. Input: COc1nn2cc(-c3ccc(OC(F)F)cc3)nc2s1 [Example B28]
> 1000 nM

###

biological target: PAR-4 (Homo sapiens, UniProt Q96RI0); construct: endogenous in cells; host or cells: washed platelets; assay: PAC-1 binding assay, washed platelets stimulated with PAR-4-AP (flow cytometry); format: cell-based; details: 10 μM antagonist, PAR-4-AP stimulation, 100% = DMSO control stimulated, read-out: PAR-4 AP % Max PAC-1 binding (10 μM)
Entries and their measured remaining activity at 10 µM follow.
The reply should consist of the numeric value with the unit placed after it.

Here's what some known entries look like.
COc1nn2cc(-c3ccccc3OC)nc2s1; 8.45%
COc1nn2cc(-c3ccc(OCc4csc(-c5ccccc5)n4)cc3)nc2s1; 0.91%

Could you now look at the following compound, please?
Form field - read-out: remaining activity at 10 µM; system: PAR-4 (Homo sapiens, UniProt Q96RI0); submitted item: COc1nn2cc(-c3ccc(-c4ccccc4)cc3)nc2s1
72.7%

###

target: PAR-4 (Homo sapiens, UniProt Q96RI0); construct: endogenous in cells; host or cells: washed platelets; experiment: PAC-1 binding assay, washed platelets stimulated with PAR-4-AP (flow cytometry); format: cell-based; conditions: 10 μM antagonist, PAR-4-AP stimulation, 100% = DMSO control stimulated, read-out: PAR-4 AP % Max PAC-1 binding (10 μM)
Entries and their measured remaining activity at 10 µM follow.
Kindly answer with a numeric value in %, unit omitted.

COc1nn2cc(-c3ccccc3C(F)(F)F)nc2s1; -0.14
CCOc1nn2cc(-c3cccc(Cl)c3)nc2s1; 2.31

Returns the measured remaining activity at 10 µM for the input compound. Input: COc1nn2cc(-c3ccc(Cl)c(Cl)c3)nc2s1
-0.92

Returns the measured remaining activity at 10 µM for the input compound. Input: CC(C)Oc1nn2cc(-c3cccc(Cl)c3)nc2s1
63.2

###

Biological target: PAR-4 (Homo sapiens)
Construct: endogenous in cells; host or cells: washed platelets
Sequence (Q96RI0 18-385): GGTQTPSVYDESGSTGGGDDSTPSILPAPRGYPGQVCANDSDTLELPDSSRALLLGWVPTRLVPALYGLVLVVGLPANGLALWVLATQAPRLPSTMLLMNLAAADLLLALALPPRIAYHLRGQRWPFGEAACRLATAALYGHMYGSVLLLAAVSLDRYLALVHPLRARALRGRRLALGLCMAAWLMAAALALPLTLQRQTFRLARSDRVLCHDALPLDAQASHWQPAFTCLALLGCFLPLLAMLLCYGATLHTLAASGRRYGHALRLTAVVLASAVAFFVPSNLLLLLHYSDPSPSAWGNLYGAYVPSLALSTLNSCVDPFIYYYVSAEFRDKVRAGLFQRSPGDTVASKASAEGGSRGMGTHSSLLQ
Experiment: PAC-1 binding assay, washed platelets stimulated with PAR-4-AP (flow cytometry)
Type: cell-based
Details: 10 μM antagonist, PAR-4-AP stimulation, 100% = DMSO control stimulated, read-out: PAR-4 AP % Max PAC-1 binding (10 μM)
Experimental: PAC-1 Binding assay: 60 μL of washed platelets (Tyrodes buffer containing 0.1% BSA) at a concentration of 0.15×10^8 platelets/mL were added to 5 mL round bottom polystyrene tubes (BD, Franklin Lakes, N.J.). […] Fluorescent intensity was determined for at least 20,000 events within the platelet gate (forward scatter versus side scatter). Data was collected and analyzed via FACS DiVa or FlowJo software. […]
Entries and their measured remaining activity at 10 µM follow.
Kindly answer with a numeric value in %, unit omitted.

COc1nn2cc(-c3ccc(F)c(C(F)(F)F)c3)nc2s1 [Example B29]; -0.45
COc1nn2cc(-c3cccc(OCc4csc(-c5ccccc5)n4)c3)nc2s1 [Example B47]; -0.27
COc1nn2cc(-c3ccccc3Cl)nc2s1 [Example B21]; 0.74
CC(C)COc1nn2cc(-c3c(F)cccc3F)nc2s1 [Example B44]; 93.7
COc1nn2cc(-c3ccccc3)nc2s1 [Example B8]; 1.48

Could you now look at the following compound, please?
Returns the measured remaining activity at 10 µM for the input compound. Input: COc1nn2cc(-c3ccc(F)cc3)nc2s1 [Example B52]
0.063
